- test.details: AUC (0 to 24 hrs) in Balb/c mouse at 10 mg/kg administered orally measured up to 24 hrs by LC-MS/MS analysis
- Type: ADME, organism-based
- Parameters: dose 10 mg/kg, time < 24 hr, route oral
- condition.parameters: in vivo, po
The entries below come with measured AUC(0-t) at 24 h values attached.
Respond with the bare value in ng·h/mL.

{"compound": "[2H]C([2H])([2H])NC(=O)c1ccc(N2C(=S)N(c3cnc(C#N)c(C(F)(F)F)c3)C(=O)C23CCC3)cc1F", "meas.value": 87800}
{"compound": "CNC(=O)c1ccc(N2C(=S)N(c3cnc(C#N)c(C(F)(F)F)c3)C(=O)C23CCC3)cc1F [APALUTAMIDE]", "meas.value": 61600}
{"compound": "[2H]C1([2H])CC([2H])([2H])C12C(=O)N(c1cnc(C#N)c(C(F)(F)F)c1)C(=S)N2c1ccc(C(=O)NC)c(F)c1", "meas.value": 41100}
{"compound": "[2H]c1cc(C(=O)NC([2H])([2H])[2H])c(F)c([2H])c1N1C(=S)N(c2cnc(C#N)c(C(F)(F)F)c2)C(=O)C12CCC2", "meas.value": 80600}

Next compound, AUC(0-t) at 24 h to be filled in.
Prompt: Please report the measured AUC(0-t) at 24 h for `[2H]c1cc(C(=O)NC)c(F)c([2H])c1N1C(=S)N(c2cnc(C#N)c(C(F)(F)F)c2)C(=O)C12CCC2`
Completion: 63800
